Values compiled from ChEMBL document CHEMBL1151705.

test system: Staphylococcus aureus; assay: Antimicrobial activity against drug-susceptible Staphylococcus aureus 2 after 20 hrs by agar dilution method; format: functional; conditions: Staphylococcus aureus, 20 h; read-out: MIC
Please respond with reported log10 MIC for every item in the list.
In plain terms, each number is the log10 of measured MIC in µg/mL.

Given the entry CCOC(=O)[C@H]1[C@H](C)O[C@@H](O[C@H]2[C@H](N(C)C)[C@@H](O)[C@H](O[C@H]3[C@@H](CC=O)C[C@@H](C)[C@@H](OC(C)=O)CN(CCCCc4ccccc4)CCN(C)C(=O)C[C@@H](OC(=O)CC)[C@@H]3OC)O[C@@H]2C)C[C@@]1(C)OC(C)=O , what log10 MIC was observed with Staphylococcus aureus?
0.30

Given the entry CCOC(=O)[C@H]1[C@H](C)O[C@@H](O[C@H]2[C@H](N(C)C)[C@@H](O)[C@H](O[C@H]3[C@@H](CC=O)C[C@@H](C)[C@@H](O)CN(C)CCC[C@H](C/C=C/c4ccc5ncccc5c4)OC(=O)C[C@@H](OC(=O)CC)[C@@H]3OC)O[C@@H]2C)C[C@@]1(C)O , what log10 MIC was observed with Staphylococcus aureus?
-0.30

Given the entry CCOC(=O)[C@H]1[C@H](C)O[C@@H](O[C@H]2[C@H](N(C)C)[C@@H](O)[C@H](O[C@H]3[C@@H](CC=O)C[C@@H](C)[C@@H](O)CN(C)CCC[C@H](C/C=C/c4cccc5ccccc45)OC(=O)C[C@@H](OC(=O)CC)[C@@H]3OC)O[C@@H]2C)C[C@@]1(C)O , what log10 MIC was observed with Staphylococcus aureus?
0.30

Given the entry CCOC(=O)[C@H]1[C@H](C)O[C@@H](O[C@H]2[C@H](N(C)C)[C@@H](O)[C@H](O[C@H]3[C@@H](CC=O)C[C@@H](C)[C@@H](O)CN(C)CC(/C=C/Cc4ccnc5ccccc45)CCOC(=O)C[C@@H](OC(=O)CC)[C@@H]3OC)O[C@@H]2C)C[C@@]1(C)O (stereo in doubt; form 1) , what log10 MIC was observed with Staphylococcus aureus?
-0.30

Given the entry CCC(=O)O[C@@H]1CC(=O)O[C@H](C)C/C=C/C=C/[C@H](OC(C)=O)[C@H](C)C[C@H](CC=O)[C@H](O[C@@H]2O[C@H](C)[C@@H](O[C@H]3C[C@@](C)(OC(C)=O)[C@@H](OC(=O)CC)[C@H](C)O3)[C@H](N(C)C)[C@H]2O)[C@H]1OC , what log10 MIC was observed with Staphylococcus aureus?
0.00

Given the entry CCOC(=O)[C@H]1[C@H](C)O[C@@H](O[C@H]2[C@H](N(C)C)[C@@H](O)[C@H](O[C@H]3[C@@H](CC=O)C[C@@H](C)[C@@H](OC(C)=O)CN(CCCCc4ccccc4)CCCNC(=O)C[C@@H](OC(=O)CC)[C@@H]3OC)O[C@@H]2C)C[C@@]1(C)OC(C)=O , what log10 MIC was observed with Staphylococcus aureus?
0.00

Given the entry CCOC(=O)[C@H]1[C@H](C)O[C@@H](O[C@H]2[C@H](N(C)C)[C@@H](O)[C@H](O[C@H]3[C@@H](CC=O)C[C@@H](C)[C@@H](OC(C)=O)CN(CCCCc4ccccc4)C[C@@H](C)NC(=O)C[C@@H](OC(=O)CC)[C@@H]3OC)O[C@@H]2C)C[C@@]1(C)OC(C)=O , what log10 MIC was observed with Staphylococcus aureus?
0.60

Given the entry CCOC(=O)[C@H]1[C@H](C)O[C@@H](O[C@H]2[C@H](N(C)C)[C@@H](O)[C@H](O[C@H]3[C@@H](CC=O)C[C@@H](C)[C@@H](O)CN(CCCCc4ccccc4)CCC(C)NC(=O)C[C@@H](OC(=O)CC)[C@@H]3OC)O[C@@H]2C)C[C@@]1(C)OC(C)=O (stereo in doubt; form 1) , what log10 MIC was observed with Staphylococcus aureus?
0.00

Given the entry CCOC(=O)[C@H]1[C@H](C)O[C@@H](O[C@H]2[C@H](N(C)C)[C@@H](O)[C@H](O[C@H]3[C@@H](CC=O)C[C@@H](C)[C@@H](O)CN(C)CCC[C@H](C/C=C/c4ccc5ccccc5c4)OC(=O)C[C@@H](OC(=O)CC)[C@@H]3OC)O[C@@H]2C)C[C@@]1(C)O , what log10 MIC was observed with Staphylococcus aureus?
0.30

Given the entry CCOC(=O)[C@H]1[C@H](C)O[C@@H](O[C@H]2[C@H](N(C)C)[C@@H](O)[C@H](O[C@H]3[C@@H](CC=O)C[C@@H](C)[C@@H](O)CN(C)CC(/C=C/Cc4cnc5ccccc5c4)CCOC(=O)C[C@@H](OC(=O)CC)[C@@H]3OC)O[C@@H]2C)C[C@@]1(C)O (stereo in doubt; form 1) , what log10 MIC was observed with Staphylococcus aureus?
-0.60

Given the entry CCOC(=O)[C@H]1[C@H](C)O[C@@H](O[C@H]2[C@H](N(C)C)[C@@H](O)[C@H](O[C@H]3[C@@H](CC=O)C[C@@H](C)[C@@H](O)CN(C)CCC[C@H](C/C=C/c4ccccc4)OC(=O)C[C@@H](OC(=O)CC)[C@@H]3OC)O[C@@H]2C)C[C@@]1(C)O , what log10 MIC was observed with Staphylococcus aureus?
0.00

Given the entry CCOC(=O)[C@H]1[C@H](C)O[C@@H](O[C@H]2[C@H](N(C)C)[C@@H](O)[C@H](O[C@H]3[C@@H](CC=O)C[C@@H](C)[C@@H](O)CN(C)CCC(CCCc4cnc5ccccc5c4)NC(=O)C[C@@H](OC(=O)CC)[C@@H]3OC)O[C@@H]2C)C[C@@]1(C)O (mixture of isomers) , what log10 MIC was observed with Staphylococcus aureus?
0.00

Given the entry CCOC(=O)[C@H]1[C@H](C)O[C@@H](O[C@H]2[C@H](N(C)C)[C@@H](O)[C@H](O[C@H]3[C@@H](CC=O)C[C@@H](C)[C@@H](O)CN(CCCCc4ccccc4)CCCOC(=O)C[C@@H](OC(=O)CC)[C@@H]3OC)O[C@@H]2C)C[C@@]1(C)OC(C)=O , what log10 MIC was observed with Staphylococcus aureus?
0.00
